In this section we review reported pEC50 values for a set of compounds.
tested_system: human S1PR3 receptor (Homo sapiens)
Sequence (Q99500 whole entry): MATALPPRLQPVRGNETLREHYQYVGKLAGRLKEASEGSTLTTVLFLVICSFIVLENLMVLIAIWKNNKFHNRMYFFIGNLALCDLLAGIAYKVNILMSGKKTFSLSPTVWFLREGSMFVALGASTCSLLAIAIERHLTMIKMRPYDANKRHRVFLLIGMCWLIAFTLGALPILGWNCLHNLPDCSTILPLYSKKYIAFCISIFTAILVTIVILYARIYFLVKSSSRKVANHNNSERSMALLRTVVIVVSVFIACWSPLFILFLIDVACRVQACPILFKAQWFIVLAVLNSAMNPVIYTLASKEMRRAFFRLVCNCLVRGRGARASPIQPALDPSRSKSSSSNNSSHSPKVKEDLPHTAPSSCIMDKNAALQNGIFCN
assay: Method 1: intracellular Ca2+ release (FLIPR, Calcium 5) in recombinant CHO-K1 cells
cond: (1): determined with method 1; read-out: S1P3 EC50
pEC50: −log10 of the molar value.

See these solved cases before continuing.
# compound, assay_result
measured = [
    ("CC(C)(C)c1ccc(COc2ccc(-c3ccc4c(n3)CCN(CCC(=O)O)C4)cc2)cc1", "< 6.00"),
    ("O=C(O)C1CC(N2CCc3nc(C#Cc4ccccc4Cl)ccc3C2)C1 (stereo not shown)", "< 6.00"),
    ("O=C(O)CCN1CCc2nc(-c3ccc(OCc4c(Cl)cccc4Cl)cc3)c(F)cc2C1", "< 6.00"),
]

Now examine the next entry.
# input compound: O=C(O)CCN1CCc2nc(-c3ccc(OCc4ccc(Cl)cc4)cc3)c(F)cc2C1 ; wanted: its pEC50
< 6.00

###

In this section we review reported pEC50 values for a set of compounds.
tested_system: human EDG8 (S1PR5) receptor (Homo sapiens, UniProt Q9H228)
Sequence (Q9H228 whole entry): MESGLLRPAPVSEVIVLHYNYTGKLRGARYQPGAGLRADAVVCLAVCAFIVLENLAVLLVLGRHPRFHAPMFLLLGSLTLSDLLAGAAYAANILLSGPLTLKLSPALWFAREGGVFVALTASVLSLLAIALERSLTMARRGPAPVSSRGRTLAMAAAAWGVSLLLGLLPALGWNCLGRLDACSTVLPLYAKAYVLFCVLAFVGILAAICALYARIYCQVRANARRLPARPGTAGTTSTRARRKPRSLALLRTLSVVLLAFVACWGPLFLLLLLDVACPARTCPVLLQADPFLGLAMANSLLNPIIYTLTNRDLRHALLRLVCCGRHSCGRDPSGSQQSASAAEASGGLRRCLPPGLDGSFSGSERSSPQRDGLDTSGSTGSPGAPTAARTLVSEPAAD
assay: Method 2: Aequorin assay, cell clone CHO-A21-EDG8 #12
cond: agonist potency, determined with method 2 (symbols E-G); read-out: S1P5 EC50 range
pEC50: −log10 of the molar value.

# compound, pEC50
records = [
    ("O=C(O)CCN1CCc2nc(-c3ccc(OCc4ccccc4F)cc3)ccc2C1 [Compound 132]", "> 7.00"),
    ("CC(CN1CCc2nc(-c3ccc(OCc4ccccc4)cc3)ncc2C1)C(=O)O (centres unmarked) [Compound 6]", "6.00 to 7.00"),
    ("O=C(O)CCN1CCc2nc(-c3ccc(OCc4ccccc4)c(F)c3)ccc2C1 [Compound 137]", "6.00 to 7.00"),
    ("CC(CN1CCc2nc(-c3ccc(OCc4ccccc4)cc3)ccc2C1)C(=O)O (centres unmarked) [Compound 101]", "6.00 to 7.00"),
    ("CC(CC(=O)O)N1Cc2ccc(-c3ccc(OCc4ccccc4)cc3)nc2C1 (centres unmarked) [Compound 200]", "5.00 to 6.00"),
    ("CC(CN1CCc2cc(-c3ccc(OCc4ccccc4)cc3)nnc2C1)C(=O)O (centres unmarked) [Compound 206]", "6.00 to 7.00"),
]

# input compound: CC(CN1CCc2nc(-c3ccc(OCc4c(Cl)cccc4Cl)cc3)ncc2C1)C(=O)O (centres unmarked) [Compound 7] ; wanted: its pEC50
6.00 to 7.00

Another: O=C(O)CCN1CCc2nc(-c3ccc(OCc4ccccc4)c(C(F)(F)F)c3)ccc2C1 [Compound 143]
6.00 to 7.00

###

tested_system: human S1PR5 receptor (Homo sapiens)
Construct: host or cells: CHO-K1
assay: Method 1: intracellular Ca2+ release (FLIPR, Calcium 5) in recombinant CHO-K1 cells
Type: cell-based
cond: agonist potency, determined with method 1 (symbols A-D); read-out: S1P5 EC50 range
pEC50: −log10 of the molar value.
In this section we review reported pEC50 values for a set of compounds.

See these solved cases before continuing.
# compound, tested_system, pEC50
measured = [
    ("O=C(O)CCN1CCc2nc(-c3ccc(OCc4cccc(C(F)(F)F)c4)cc3)ccc2C1", "human S1PR5 receptor (Homo sapiens)", "> 8.00"),
    ("O=C(O)CCN1Cc2ccc(-c3cccc(OCc4ccccc4)c3)nc2C1", "human S1PR5 receptor (Homo sapiens)", "5.00 to 6.00"),
    ("Cc1cc(-c2ncc3c(n2)CCN(CC(C)CC(=O)O)C3)ccc1OCc1cccc(Cl)c1 (centres unmarked)", "human S1PR5 receptor (Homo sapiens)", "> 8.00"),
    ("CC(CC(=O)O)CN1CCc2nc(-c3ccc(C(F)(F)Cc4ccc(Cl)cc4)cc3)ncc2C1 (centres unmarked)", "human S1PR5 receptor (Homo sapiens)", "7.00 to 8.00"),
    ("O=C(O)CCN1CCc2nc(-c3ccc(OCc4ccccc4OC(F)(F)F)cc3)ccc2C1", "human S1PR5 receptor (Homo sapiens)", "> 8.00"),
    ("Cc1cc(-c2cc3c(cn2)CN(CCC(=O)O)CC3)ccc1OCc1ccccc1", "human S1PR5 receptor (Homo sapiens)", "7.00 to 8.00"),
    ("CC(CC(=O)O)CN1CCc2nc(-c3ccc(CCc4ccc(Cl)cc4)cc3F)ncc2C1 (centres unmarked)", "human S1PR5 receptor (Homo sapiens)", "> 8.00"),
    ("CC(CC(=O)O)CN1CCc2nc(-c3ccc(OCc4ccccc4Cl)cc3F)ncc2C1 (centres unmarked)", "human S1PR5 receptor (Homo sapiens)", "7.00 to 8.00"),
    ("CC(CC(=O)O)CN1Cc2cnc(-c3ccc(OCc4ccc(Cl)cc4)cc3)nc2CC1(C)C (centres unmarked)", "human S1PR5 receptor (Homo sapiens)", "5.00 to 6.00"),
    ("CC(CN1CCc2nc(-c3ccc(OCc4ccccc4)c(F)c3)ccc2C1)C(=O)O (centres unmarked)", "human S1PR5 receptor (Homo sapiens)", "7.00 to 8.00"),
]

# input compound: O=C(O)CCN1CCc2nc(-c3ccc(OCc4cccc(C(F)(F)F)c4)cc3)ncc2C1 ; wanted: its pEC50
> 8.00

Another: CC(CCC(=O)O)N1CCc2nc(-c3ccc(OCc4ccccc4)cc3)ncc2C1 (centres unmarked)
> 8.00

Another: O=C(O)CCCN1CCc2nc(-c3ccc(OCc4cccc(Cl)c4)cc3)ncc2C1
> 8.00

Another: CC(CC(=O)O)CN1CCc2nc(-c3ccc(OCc4ccccc4)cc3)ncc2C1 (centres unmarked)
7.00 to 8.00

Another: CC(C(=O)O)N1CCc2nc(-c3ccc(OCc4ccccc4)cc3)ncc2C1 (centres unmarked)
5.00 to 6.00

Another: O=C(O)CCN1CCc2nc(-c3ccc(OCc4ccccc4)cc3)c(F)cc2C1
> 8.00

Another: O=C(O)CCN1CCc2nc(-c3ccc(OCc4ccc(Cl)cc4)cc3)cnc2C1
> 8.00
